# key: entry, value: growth
Test system: NCI-H460 lung
ASSAY OVERVIEW: NCI-60 one-dose screen, 48 h (100 = growth as untreated, 0 = no growth, -100 = all killed)
EXPERIMENTAL CONDITIONS: 10 µM unless noted
Compounds without any hit were thinned out: in the full panel of roughly 83,000, 20% have a hit.
Only the number, expressed in %, is required.

// worked examples, growth included
COMPOUND	MEASUREMENT
O=C(OCc1ccc2c(Br)cc(Br)c(O)c2n1)N1CCN(C(=O)c2cc3ccccc3[nH]2)CC1	12
N#C/C(=C\c1cccc2cnccc12)N1N=NC2C=CC=CC21 (centres undefined)	40.8
C=CN(C(=O)N1CCN(c2cc3c(cc2F)c(=O)c(C(=O)O)cn3C2CC2)CC1)c1nc(-c2ccc(C)cc2)cs1	9.77
COc1ccc(/C=N\NC(=O)c2ccc3nc(-c4ccc(Cl)cc4)[nH]c3c2)cc1	5.91
O=C(Nc1ncc(Cc2ccccc2Cl)s1)c1ccc2c(c1)OCCO2	5.42
CNC1=C([N+](=O)[O-])C(c2ccc(OC)cc2)C(C#N)=C(c2ccc[nH]2)O1 (centres undefined)	100
O=C(CN1C(=O)c2ccccc2S1(=O)=O)Nc1nc(-c2cc3ccccc3oc2=O)cs1	105
COc1cc(C2CC(c3cccc(Nc4ccncc4)c3)=Nc3c(N)ncnc3N2)cc(OC)c1OC (centres undefined)	95.9
CCCC1Cc2cc(-n3nc(C)c4c3CC(C)(C)CC4=O)cc(NC3CCC(O)CC3)c2C(=O)N1 (centres undefined)	18
CCN1CCN(c2cc(C(=O)Nc3cccc(Nc4ccc5c(OC)cccc5n4)c3)cc(C(F)(F)F)c2)CC1	-48.7

# context switch: different compound, same growth
Using the record for O=C(Nc1ncc(Cc2ccc(Cl)cc2)s1)c1ccc2c(c1)OCCO2 , report its growth.
8

From: PubChem BioAssay (NCI)
